Cited source for all entries: ChEMBL document CHEMBL1125570

- target or test system: Serotonin 2 (5-HT2) receptor (Rattus norvegicus)
- method notes: Binding affinity against 5-hydroxytryptamine 2 receptor in rat using [3H]ketanserin as radioligand
measure: log10 of Ki (log10 of the value in µM)
Each number you see is log10 of Ki, and the unit inside the log is µM.

Reference set, count: 5
[
  {
    "compound": "O=C(c1ccc(F)cc1)C1CCNCC1",
    "log10 of Ki": -0.37
  },
  {
    "compound": "CN1CCC(C(=O)c2ccc(F)cc2)CC1",
    "log10 of Ki": -0.90
  },
  {
    "compound": "O=C(O)C(=O)O.O=C(c1ccc(F)cc1)C1CCN(CCCCc2ccccc2)CC1",
    "log10 of Ki": -2.28
  },
  {
    "compound": "O=C(c1ccccc1)C1CCNCC1",
    "log10 of Ki": 0.52
  },
  {
    "compound": "O=C(NCCN1CCC(C(=O)c2ccc(F)cc2)CC1)Nc1ccccc1.O=C(O)C(=O)O",
    "log10 of Ki": -2.37
  }
]

Look up log10 of Ki for this compound: "O=C(O)C(=O)O.O=C(c1ccc(F)cc1)C1CCN(CCCCCc2ccccc2)CC1"
-2.00

Same lookup for O=C(O)C(=O)O.O=c1[nH]c2ccccc2c(=O)n1CCN1CCC(C(O)c2ccccc2)CC1 (centres undefined) , please.
-0.18

Same lookup for "O=C(O)/C=C\C(=O)O.O=C(c1ccccc1)C1CCN(CCn2c(=O)[nH]c3ccccc3c2=O)CC1" , please.
-2.19

Same lookup for "O=C(O)/C=C\C(=O)O.O=c1[nH]c2ccccc2c(=O)n1CCN1CCC(Cc2ccccc2)CC1" , please.
-1.49

Same lookup for "CCN1CCC(C(=O)c2ccc(F)cc2)CC1" , please.
-0.59

Same lookup for "O=C(O)/C=C\C(=O)O.O=c1[nH]c2ccccc2c(=O)n1CCNCCCc1ccccc1" , please.
-0.18

Same lookup for "O=C(NCCN1CCC(C(=O)c2ccc(F)cc2)CC1)c1ccccc1.O=C(O)C(=O)O" , please.
-1.80

Same lookup for "O=C(O)C(=O)O.O=C(c1ccc(F)cc1)C1CCN(CCc2ccccc2)CC1" , please.
-2.07

Same lookup for "CN(CCCc1ccccc1)CCn1c(=O)[nH]c2ccccc2c1=O.O=C(O)C(=O)O" , please.
-0.19

Same lookup for "O=C(O)/C=C\C(=O)O.O=c1[nH]c2ccccc2c(=O)n1CCNCCCCc1ccccc1" , please.
-0.74
